tested on: Ipomoea lacunosa; assay: Post-emergence herbicidal activity against Ipomoea lacunosa assessed as mortality at 6.3 g a.i/10 a applied 11 days after germination as foliar spray; format: functional; conditions: 264 h
metric.name: mortality at 63 g/ha

These recorded examples may help you get a feel for the data.
COc1cc(OC)nc(Sc2cccc(Cl)c2C(=O)O)n1 ... > 90%
COc1cc(OC)nc(Sc2cccc(OC(C)C)c2C(=O)O)n1 ... > 90%
COc1cc(OC)nc(Sc2cccc(SC)c2C(=O)O)n1 ... > 90%

For each entry beneath this line, provide reported mortality at 63 g/ha.
1. COc1cc(OC)nc(Oc2cccc(C(F)(F)F)c2C(=O)O)n1
2. CCCOc1cccc(Sc2nc(OC)cc(OC)n2)c1C(=O)O
3. COc1cc(OC)nc(Oc2cccc(Br)c2C(=O)O)n1
4. COc1cc(OC)nc(Sc2cccc(C)c2C(=O)O)n1
5. COc1cc(OC)nc(Oc2cccc(I)c2C(=O)O)n1

1: > 90%; 2: < 5%; 3: > 90%; 4: < 5%; 5: > 90%
